MEASURED_TARGET: His-GST-TVMV-hRIPK1 (1-324) (Homo sapiens (Human), UniProt Q13546)
Sequence (Q13546 1-324): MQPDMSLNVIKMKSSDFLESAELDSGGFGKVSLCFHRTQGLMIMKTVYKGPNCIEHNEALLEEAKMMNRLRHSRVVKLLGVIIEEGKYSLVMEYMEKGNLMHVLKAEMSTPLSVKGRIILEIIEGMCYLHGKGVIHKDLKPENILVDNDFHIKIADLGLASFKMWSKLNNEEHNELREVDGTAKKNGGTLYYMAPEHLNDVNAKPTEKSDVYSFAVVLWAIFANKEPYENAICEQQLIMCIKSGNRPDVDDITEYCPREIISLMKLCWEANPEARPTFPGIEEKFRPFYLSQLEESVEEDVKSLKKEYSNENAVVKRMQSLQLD
METHOD_DESCRIPTION: RIPK1 HTRF Binding Assay
RECORDED_CONDITIONS: read-out: RIPK1 HTRF (IC50); FRET probe displacement, 1 h at rt
Exercise: for every item that follows, state its recorded pIC50.
One number for each entry, as −log10 of the molar value.

Sample answers from the record:
MOLECULE: CNC(=O)c1n[nH]c2cc(-c3cnc(OC)c(C(=O)NCC(C)(C)C(=O)NCc4ccc(F)cc4)c3)ccc12 [Example 91]
MEASURED_TARGET: His-GST-TVMV-hRIPK1 (1-324) (Homo sapiens (Human), UniProt Q13546)
pIC50: 8.74
--
MOLECULE: CNC(=O)c1n[nH]c2cc(-c3cnc(OC)c(C(=O)NC45CC6CC(C4)CC(c4ccccc4)(C6)C5)c3)ccc12 [Example 95]
MEASURED_TARGET: His-GST-TVMV-hRIPK1 (1-324) (Homo sapiens (Human), UniProt Q13546)
pIC50: 7.77
--
MOLECULE: [2H]C([2H])([2H])Oc1ncc(-c2ccc3c(C(=O)NC4CCC(N(C([2H])([2H])[2H])C([2H])([2H])[2H])CC4)n[nH]c3c2)cc1C(=O)NC(C)c1cccc(OC(F)(F)F)c1 (stereo not shown) [Example 23]
MEASURED_TARGET: His-GST-TVMV-hRIPK1 (1-324) (Homo sapiens (Human), UniProt Q13546)
pIC50: 7.62
--
MOLECULE: CNC(=O)c1n[nH]c2cc(-c3cnc(OC)c(C(=O)NCc4cc(C(F)(F)F)ccn4)c3)ccc12 [Example 143]
MEASURED_TARGET: His-GST-TVMV-hRIPK1 (1-324) (Homo sapiens (Human), UniProt Q13546)
pIC50: 7.55
--
MOLECULE: CCNC(=O)c1n[nH]c2cc(-c3cnc(OC)c(C(=O)NCc4ccccc4OC(F)(F)F)c3)ccc12 [Example 170]
MEASURED_TARGET: His-GST-TVMV-hRIPK1 (1-324) (Homo sapiens (Human), UniProt Q13546)
pIC50: 8.10
--
MOLECULE: [2H]C([2H])([2H])Oc1ncc(-c2ccc3c(C(=O)NCC4CC4)n[nH]c3c2)cc1C(=O)NC(C)c1cccc(OC(F)(F)F)c1 (stereo not shown) [Example 166]
MEASURED_TARGET: His-GST-TVMV-hRIPK1 (1-324) (Homo sapiens (Human), UniProt Q13546)
pIC50: 7.08

# context switch: different molecule, same pIC50
For the molecule CNC(=O)c1n[nH]c2cc(-c3cnc(OC)c(C(=O)NCCCOc4ccccc4)c3)ccc12 [Example 55] , report pIC50.
7.92
